Data credit: ChEMBL document CHEMBL4513216

System: Plasmodium falciparum
TEST_NAME: Screen against P. falciparum Asexual Blood Stage (ABS), at 5uM
Assay type: functional, Dd2
COND: tested at 5 uM
Out of some 65,000 compounds screened, about 2,100 (3.2%) showed an effect of 50% or more. The median lay at about -52%. The list comes from a sample in which strong results are over-represented; it also holds close analogues and randomly drawn compounds.
Quick reference for INHIBITION among some molecules
Form entry: value (%) — number only.

Cc1cc2c(cc1Cl)C=CC1(CCN(C(=O)N3CCOCC3)CC1)O2 ... -24
O=C(NCCC1=CCCCC1)NC1CCCc2c1cnn2CCO (stereo unspecified) ... -134
COc1cc(CNCc2ccc(C(C)O)cc2)cc2c1OCO2 (stereo unspecified) ... 9.88
COc1ccc(C[C@H]2CN(c3nnc(C)s3)CC[C@@H]2OC)cc1 ... -16
Cn1cc(CN2CCOCC3(CCN(C4CCOCC4)C3)C2)cn1 (stereo unspecified) ... -41.5
CO[C@@H]1CCN(Cc2ccoc2)[C@H]1Cc1ccccc1 ... 61.4
COc1ccc(C[C@H]2CNCC[C@H]2OC)cc1 ... 58
Cc1cccc(CN2CCOCC3(CCN(C4CCOCC4)C3)C2)n1 (stereo unspecified) ... 42.5

Reported INHIBITION for Cc1cc2c(cc1Cl)C=CC1(CCN(CC(=O)N3CCCC3)CC1)O2 : what is it?
59.9

What would you report for Cc1cc2c(cc1Cl)C=CC1(CCN(CC(=O)NC3CCCC3)CC1)O2 ?
32.7

What would you report for Fc1ccc(CN2CCCC3(COCCN(Cc4c[nH]nn4)C3)C2)cc1 (stereo unspecified) ?
61.7
